The measurements presented in this section are drawn from patent US20260125400A1.

- Target desc: TYK2 (Homo sapiens, UniProt P29597)
- Construct: Degradation of TYK2 in cells was quantitatively measured using Meso Scale Discovery (MSD) technology; endogenous in cells; host or cells: OCI-LY10
- Sequence (P29597 whole entry): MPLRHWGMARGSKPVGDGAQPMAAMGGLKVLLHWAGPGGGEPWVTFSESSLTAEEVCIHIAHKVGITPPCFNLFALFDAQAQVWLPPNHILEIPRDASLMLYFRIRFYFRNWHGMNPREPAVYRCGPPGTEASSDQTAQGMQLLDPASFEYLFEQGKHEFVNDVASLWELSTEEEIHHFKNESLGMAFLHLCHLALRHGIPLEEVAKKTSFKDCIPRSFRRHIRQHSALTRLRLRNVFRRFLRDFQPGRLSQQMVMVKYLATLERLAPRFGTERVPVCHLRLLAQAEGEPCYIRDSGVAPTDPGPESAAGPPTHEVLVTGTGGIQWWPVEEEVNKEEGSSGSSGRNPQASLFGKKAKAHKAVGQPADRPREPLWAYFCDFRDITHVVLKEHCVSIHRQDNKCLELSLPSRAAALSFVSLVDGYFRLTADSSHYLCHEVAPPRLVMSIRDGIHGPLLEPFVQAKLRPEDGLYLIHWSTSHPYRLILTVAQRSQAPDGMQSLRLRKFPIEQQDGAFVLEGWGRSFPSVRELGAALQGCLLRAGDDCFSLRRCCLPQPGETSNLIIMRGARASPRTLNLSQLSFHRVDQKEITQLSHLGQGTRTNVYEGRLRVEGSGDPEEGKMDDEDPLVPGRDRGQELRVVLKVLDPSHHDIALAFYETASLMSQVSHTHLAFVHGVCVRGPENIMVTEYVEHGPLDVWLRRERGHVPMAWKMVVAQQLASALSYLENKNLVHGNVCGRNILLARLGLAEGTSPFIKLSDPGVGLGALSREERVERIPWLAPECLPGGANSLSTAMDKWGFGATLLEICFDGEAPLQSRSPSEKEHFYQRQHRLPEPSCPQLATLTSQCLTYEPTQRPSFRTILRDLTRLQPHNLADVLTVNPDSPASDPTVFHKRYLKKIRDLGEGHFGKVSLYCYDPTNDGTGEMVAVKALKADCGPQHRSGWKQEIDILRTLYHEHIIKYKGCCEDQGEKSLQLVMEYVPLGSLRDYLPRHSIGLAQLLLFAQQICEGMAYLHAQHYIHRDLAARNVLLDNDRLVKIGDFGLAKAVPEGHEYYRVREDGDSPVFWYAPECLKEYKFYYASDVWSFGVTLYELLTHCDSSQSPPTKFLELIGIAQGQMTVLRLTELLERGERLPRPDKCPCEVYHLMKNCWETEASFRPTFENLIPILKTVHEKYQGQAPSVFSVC
- Measurement protocol: TYK2 MSD degradation in OCI-LY10 cells
- Assay type: cell-based
- Conditions: OCI-LY10 cells, 4 to 24 hours incubation
- Protocol: Example 7. TYK2 MSD Degradation Degradation of TYK2 in cells was quantitatively measured using Meso Scale Discovery (MSD) technology. OCI-LY10 cells were seeded in 96-well plates with a density of 0.4 million cells per well in 100 μl fresh media. […] The assay plates were then incubated at room temperature for 1 hour, washed 3 times with 150 μl/well TB ST buffer, and 150 μl/well MSD reading buffer (MSD, R92TC-2) were added. The plates were then analyzed by an MSD reader. […]
Measurement name: TYK2 MSD OCI-LY10 Dmax %

Compound	Measurement name	Result value
CNc1cc(N2CCc3c(-c4ccc(N5CCC6(CC5)CN(C(=O)c5ccc(C7CCC(=O)NC7=O)c(Cl)c5)C6)cn4)cccc32)nn2c(C(=O)NC3CC3F)cnc12 (mixture of isomers)	TYK2 MSD OCI-LY10 Dmax %	C (C (75 to 50%))
CNc1cc(N2CCc3c(-c4ccc(CN5CC6(CCN(C(=O)c7ccc(Cl)c(C8CCC(=O)NC8=O)c7)CC6(F)F)C5)cn4)cccc32)nn2c(C(=O)N[C@@H]3C[C@@H]3F)cnc12 (some centres unmarked)	TYK2 MSD OCI-LY10 Dmax %	A (A (>90%))
CNc1cc(N2CCc3c(CN4CCC(N5CCC6(CCN(C(=O)c7cc(F)c(OC)c(N8CCC(=O)NC8=O)c7)CC6)CC5)C(F)(F)C4)cccc32)nn2c(C(=O)N[C@@H]3C[C@@H]3F)cnc12 (some centres unmarked)	TYK2 MSD OCI-LY10 Dmax %	B (B (90 to >75%))
CNc1cc(N2CCc3c(CN4CC[C@H](N5CCC6(CCN(C(=O)c7ccc(Cl)c(N8CCC(=O)NC8=O)c7)CC6)CC5)C(F)(F)C4)cccc32)nn2c(C(=O)N[C@@H]3C[C@@H]3F)cnc12	TYK2 MSD OCI-LY10 Dmax %	B (B (90 to >75%))
CNc1cc(N2CCc3c(-c4ccc(OCC5CCN(Cc6ccc(Cl)c(C7CCC(=O)NC7=O)c6)CC5)cn4)cccc32)nn2c(C(=O)N[C@@H]3C[C@@H]3F)cnc12 (some centres unmarked)	TYK2 MSD OCI-LY10 Dmax %	D (D (<50%))
CNc1cc(N2CCc3c(CN4CCC(CN5CCC(N(C)c6ccc(Cl)c(N7CCC(=O)NC7=O)c6)CC5)C(F)(F)C4)cccc32)nn2c(C(=O)N[C@@H]3C[C@@H]3F)cnc12 (some centres unmarked)	TYK2 MSD OCI-LY10 Dmax %	B (B (90 to >75%))
CNc1cc(N2CCc3c(-c4ccc(CN5CCC6(CCN(C(=O)c7cc(C)c(OC)c(N8CCC(=O)NC8=O)c7)CC6)C(F)(F)C5)cn4)cccc32)nn2c(C(=O)N[C@@H]3C[C@@H]3F)cnc12	TYK2 MSD OCI-LY10 Dmax %	B (B (90 to >75%))
CNc1cc(N2CCc3c(-c4cc(CN5CCN(c6ccn7c(N8CCC(=O)NC8=O)cnc7c6)CC5)ccn4)cccc32)nn2c(C(=O)N[C@@H]3C[C@@H]3F)cnc12	TYK2 MSD OCI-LY10 Dmax %	C (C (75 to 50%))
CNc1cc(N2CCc3c(-c4cc(CN5CCN(c6noc7cc(N8CCC(=O)NC8=O)ccc67)CC5)ccn4)cccc32)nn2c(C(=O)N[C@@H]3C[C@@H]3F)cnc12	TYK2 MSD OCI-LY10 Dmax %	D (D (<50%))
CNc1cc(N2CCc3c(-c4ncc(CN5CC6(CCN(C(=O)c7cc(C)c(Cl)c(N8CCC(=O)NC8=O)c7)CC6(F)F)C5)cc4Cl)cccc32)nn2c(C(=O)N[C@@H]3C[C@@H]3F)cnc12	TYK2 MSD OCI-LY10 Dmax %	B (B (90 to >75%))
CNc1cc(N2CCc3c(-c4ccc(CN5CCC6(CC5)CC(COc5ccc(C7CCC(=O)NC7=O)c(Cl)c5)C6)cn4)cccc32)nn2c(C(=O)N[C@@H]3C[C@@H]3F)cnc12 (some centres unmarked)	TYK2 MSD OCI-LY10 Dmax %	D (D (<50%))
CNc1cc(N2CCc3c(N4CCC(CN5CCC6(CC5)CCN(c5ccc(Cl)c(C7CCC(=O)NC7=O)c5)CC6)CC4)cccc32)nn2c(C(=O)N[C@@H]3C[C@@H]3F)cnc12 (some centres unmarked)	TYK2 MSD OCI-LY10 Dmax %	D (D (<50%))
CNc1cc(N2CCc3c(-c4cnc(CC5CC6(CCN(C(=O)c7cc(C)c(Cl)c(N8CCC(=O)NC8=O)c7)CC6)C5)cn4)cccc32)nn2c(C(=O)N[C@@H]3C[C@@H]3F)cnc12	TYK2 MSD OCI-LY10 Dmax %	B (B (90 to >75%))
CNc1cc(N2CCc3c(N4CC(CN5CCN(C6CCN(C(=O)c7ccc(Cl)c(N8CCC(=O)NC8=O)c7)CC6)CC5)C4)cccc32)nn2c(C(=O)N[C@@H]3C[C@@H]3F)cnc12	TYK2 MSD OCI-LY10 Dmax %	D (D (<50%))
CNc1cc(N2CCc3c(-c4ccc(CN5CC6(CCN(C(=O)c7cc(Cl)c(C)c(N8CCC(=O)NC8=O)c7)CC6(F)F)C5)cn4)cccc32)nn2c(C(=O)N[C@@H]3CC[C@H]3OC)cnc12	TYK2 MSD OCI-LY10 Dmax %	A (A (>90%))
CNc1cc(N2CCc3c(CN4CCC(N5CCC6(CCN(C(=O)c7cc(Cl)c(OC)c(N8CCC(=O)NC8=O)c7)CC6)CC5)C(F)(F)C4)cccc32)nn2c(C(=O)N[C@@H]3C[C@@H]3F)cnc12 (some centres unmarked)	TYK2 MSD OCI-LY10 Dmax %	B (B (90 to >75%))
CNc1cc(N2CCc3c(-c4ncc(CN5CC6(CCN(C(=O)c7cc(C)c(Cl)c(N8CCC(=O)NC8=O)c7)CC6(F)F)C5)cc4C)cccc32)nn2c(C(=O)N[C@@H]3C[C@@H]3F)cnc12	TYK2 MSD OCI-LY10 Dmax %	B (B (90 to >75%))
CNc1cc(N2CCc3c(-c4ccc(CN5CC6(CCN(C(=O)c7ccc(Cl)c(N8CCC(=O)NC8=O)c7)CC6(F)F)C5)cn4)cccc32)nn2c(C(=O)NC3CC(F)(F)C3)cnc12	TYK2 MSD OCI-LY10 Dmax %	B (B (90 to >75%))
CNc1cc(-c2cn(C3CCN(C4CCN(C(=O)c5ccc(Cl)c(N6CCC(=O)NC6=O)c5)CC4)CC3)c3ccccc23)nn2c(C(=O)N[C@@H]3C[C@@H]3F)cnc12	TYK2 MSD OCI-LY10 Dmax %	D (D (<50%))
CNc1cc(N2CCc3c(CC4CCC(N5CCC(N6CCN(C(=O)c7ccc(Cl)c(N8CCC(=O)NC8=O)c7)CC6)C(F)(F)C5)CC4)cccc32)nn2c(C(=O)NC3CC3F)cnc12 (centres unmarked)	TYK2 MSD OCI-LY10 Dmax %	D (D (<50%))
